Molecular target: T1, recombinant mouse Ang2-FLD (mouse, UniProt O35608 275-496, limits assumed)
T1 construct: domain: FLD
T1 sequence (looked up): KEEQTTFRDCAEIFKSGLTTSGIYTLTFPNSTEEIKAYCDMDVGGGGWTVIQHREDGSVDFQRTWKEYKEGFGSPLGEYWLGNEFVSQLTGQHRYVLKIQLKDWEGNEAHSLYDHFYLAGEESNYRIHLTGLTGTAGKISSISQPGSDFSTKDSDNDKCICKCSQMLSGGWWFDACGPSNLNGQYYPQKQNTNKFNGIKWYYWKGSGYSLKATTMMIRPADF
Experiment: SPR (Biacore T100), binder on CM5 chip, Ang2-FLD as analyte
pKd: −log10 of the molar value.
Mark Fulfilled for reported pKd of 8 or greater; mark Not fulfilled for anything smaller.

As a guide, the following entries are already answered.
VHH 24B05 (VHH, also called 024B05; not shown: C-terminal c-myc tag and His6 tag) VHH: EVQLVESGGGLVQPGGSLRLSCAASGFTLDYYAIGWFRQAPGKEWEGVSCISSSDGSTYYADSVKGRFTISRDNAKNTVYLQMNSLKPEDTAVYYCATDSIVCGSYYGMDYWGKGTQVTVSS = Fulfilled
VHH 11B07 (VHH, also called 011B07; not shown: C-terminal c-myc tag and His6 tag) VHH: EVQLVESGGGLVQVGDSLRLSCAASGRTFSTYLMVGWFRQAPGKEREFAAGIWSSGDTAYADSVRGRFTISRDNAKNTVYLQMNSLKTEDTAVYYCAGSYDGNYYIPGFYKDWGQGTQVTVSS = Not fulfilled
VHH 7G08 (VHH, also called 007G08; not shown: C-terminal c-myc tag and His6 tag) VHH: EVQLVESGGGLVQPGGSLRLSCAASGFALDYYAIGWFRQVPGKEREGVSCISSSDGITYYVDSVKGRFTISRDNAKNTVYLQMNSLKPEDTAVYYCATDSGGYIDYDCMGLGYDYWGQGTQVTVSS = Fulfilled
VHH 13A02 (VHH, also called 013A02; not shown: C-terminal c-myc tag and His6 tag) VHH: EVQLVESGGGLVQAGGSLRLSCAASGGTFSSYSMGWFRQAPGKEREFIAAINWNGDSTYYEDSVKGRFTVSRDNAKNTVYLQMNSLKPEDTAVYYCAATGWGRAYEQAYEYDVWGQGTQVTVSS = Not fulfilled
VHH 28D10 (VHH, also called 028D10; not shown: C-terminal c-myc tag and His6 tag) VHH: EVQLVESGGGLVQAGGSLRLSCAASGFTLDDYAIGWFRQAPGKEREGVSCIRDSDGSTYYADSVKGRFTISSDNDKNTVYLQMNSLKPEDTAVYYCAAVPAGRLRFGEQWYPLYEYDAWGQGTQVTVSS = Fulfilled

Continue with the next binder.
Form field: pKd at least 8? Entry: VHH 1D01 (VHH, also called 001D01; not shown: C-terminal c-myc tag and His6 tag) VHH: EVQLVESGGGLVQAGGSLRLSCAASGFTFDDYALGWFRQAAGKEREGVSCIRCSDGSTYYADSVKGRFTISSDNAKNTVYLQMNSLKPEDTAVYYCAASIVPRSKLEPYEYDAWGQGTQVTVSS
Fulfilled
